From: patent US10851083B2

# subject-of-test: human PHD2181-417 (Homo sapiens (Human))
# Sequence (Q9GZT9 181-417): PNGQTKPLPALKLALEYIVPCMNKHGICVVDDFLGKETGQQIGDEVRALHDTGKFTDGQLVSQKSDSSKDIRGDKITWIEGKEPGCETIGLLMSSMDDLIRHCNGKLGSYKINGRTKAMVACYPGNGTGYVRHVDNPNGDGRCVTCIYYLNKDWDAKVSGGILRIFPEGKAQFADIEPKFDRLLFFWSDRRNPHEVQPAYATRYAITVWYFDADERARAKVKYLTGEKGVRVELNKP
# method: PHD2 enzyme activity assay ([14C]-succinic acid production);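 note: reaction ran 10 min with compound in Tris pH 7.5 buffer with catalase, DTT and ascorbate, labelled succinate freed of leftover 2-oxoglutarate by DNP precipitation, then beta counted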
# Type: biochemical
# study-conditions: PHD2181-417 polypeptide, HIF-1α peptide 10 μM, [5-14C]-2-oxoglutaric acid; 30 min pre-incubation; tested 10 μM to 3 nM
Field: Enzyme pIC50. Provide a value for each of the molecules that follow.
Output spec: single numeric token, no unit.

For O=C(O)c1cnn(-c2nc3cc(S(=O)(=O)Cc4ccc(Cl)c(Cl)c4)c(Cl)cc3[nH]2)c1 [Example 176] , what is its reported Enzyme pIC50?
7.6

Cool, now O=C(O)c1cnn(-c2nc3c(F)c(F)ccc3[nH]2)c1 [Example 111]
6.6

Cool, now CS(=O)(=O)c1cc2[nH]c(-n3cc(C(=O)O)cn3)nc2cc1C(F)(F)F [Example 97]
7.6

Cool, now CC[S+]([O-])c1cc2[nH]c(-n3cc(C(=O)O)cn3)nc2cc1Cl (centres unmarked) [Example 95]
7.2

Cool, now COc1ccc(CS(=O)(=O)c2cc3nc(-n4cc(C(=O)O)cn4)[nH]c3cc2Cl)cc1 [Example 91]
7.7

Cool, now O=C(O)c1cnn(-c2nc3cc(SCc4c(Cl)cccc4Cl)c(Cl)cc3[nH]2)c1 [Example 168]
7.3

Cool, now Cc1ccc(CS(=O)(=O)c2cc3nc(-n4cc(C(=O)O)cn4)[nH]c3cc2Cl)cc1 [Example 178]
7.7

Cool, now CCS(=O)(=O)c1cc2[nH]c(-n3cc(C(=O)O)cn3)nc2cc1Cl [Example 96]
7.4
